assayed system: T1, PUF4 RNA-binding domain (Saccharomyces cerevisiae, UniProt P25339 537-888)
T1 sequence: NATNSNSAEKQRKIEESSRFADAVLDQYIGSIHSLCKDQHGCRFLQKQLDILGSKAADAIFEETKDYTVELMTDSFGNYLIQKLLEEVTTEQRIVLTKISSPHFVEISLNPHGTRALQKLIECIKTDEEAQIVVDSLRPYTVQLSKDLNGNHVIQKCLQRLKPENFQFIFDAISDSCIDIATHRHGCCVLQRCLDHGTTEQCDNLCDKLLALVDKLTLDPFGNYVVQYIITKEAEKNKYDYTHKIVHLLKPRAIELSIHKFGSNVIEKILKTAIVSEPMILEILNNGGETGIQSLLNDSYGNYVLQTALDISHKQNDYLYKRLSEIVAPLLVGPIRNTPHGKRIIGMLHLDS
experiment description: Mg; RNA-MaP; 20 mM Na-HEPES pH 7.4, 30 mM KOAc, 0.75 mM MgCl2, 0.1% Tween-20, 5% glycerol, 0.1 mg/mL BSA, 2 mM DTT; 25 C; 0.0125-409.6 nM protein
condition: tags: N-His6-TEV cleaved; C-SNAP kept, Cy3B-labelled; label: tethered on chip by stalled RNA polymerase
experimental readout: Kd (nM)

- binder: "Ib_S2_P5E.1_K5.1_C5.1_H5.1_A5.1_F5.1_[T9A]_[A10T]_T5.1 (ssRNA) RNA: UUUGAUUAAUAUGAUAUCGUUCUUUCUUGUAUUAUAUUUCUUUCUCGAUAUCAUAUUAAUCUUU"
  observed result: 0.947
- binder: "ACAAACCGUAUAUAUAAAACAAAC (ssRNA) [Id_ii_S3_P3E.3_K3.2_C3.2_[T-1G]_H3.2_A3.1_F3.1_T3.2_[T9A]]"
  observed result: 697
- binder: "Ic_S4_P5E.1_K5.1_C5.1_H5.1_A5.1_[T5C]_[T6C]_F5.1_[T8G]_[A10G]_T5.1 (ssRNA) RNA: UUUGACAACUGAUCGUUCUUUCUUGUACCAGUGUUCUUUCUCGAUCAGUUGUCUUU"
  observed result: 124
